Where these numbers come from: ChEMBL document CHEMBL1144028

Measured pIC50 (Hepatocyte growth factor receptor (Homo sapiens))
Give only the number. pIC50 is defined as minus log10 of concentration in molar units.

Below are worked cases with known answers.
COc1cc2nccc(Oc3ccc4c(c3)OCCN4C(=O)Nc3ccccc3Cl)c2cc1OC    6.54
COc1cc2nccc(Oc3ccc4c(c3)OCCN4C(=O)Nc3ccc(Cl)cc3)c2cc1C(N)=O    6.80
COc1cc2nccc(Oc3ccc4c(c3)OCCN4C(=O)N[C@@H](C)c3ccccc3)c2cc1OC    6.34

For the compound COc1cc2nccc(Oc3ccc4c(c3)OCCN4C(=O)Nc3ccc(C)cc3)c2cc1C(N)=O , the measured pIC50 on Hepatocyte growth factor receptor (Homo sapiens) was 6.59

Entry CCNC(=O)N1CCOc2cc(Oc3ccnc4cc(OC)c(OC)cc34)ccc21 under Hepatocyte growth factor receptor (Homo sapiens) had pIC50 of 5.85

With Hepatocyte growth factor receptor (Homo sapiens) as the test system, COc1cc2nccc(Oc3ccc4c(c3)OCCN4C(=O)N[C@H](C)c3ccccc3)c2cc1OC showed pIC50 of 6.68

Record COc1cc2nccc(Oc3ccc4c(c3)OCCN4C(=O)NCc3ccccc3)c2cc1OC / Hepatocyte growth factor receptor (Homo sapiens), pIC50 recorded as 5.80

Summary: COc1cc2nccc(Oc3ccc4c(c3)OCCN4C(=O)Nc3ccc(C)cc3)c2cc1OC , Hepatocyte growth factor receptor (Homo sapiens), pIC50 = 6.43

###

Listing of entries alongside the reported Tmax.
Assay: Tmax in Sprague-Dawley rat at 2 mg/kg, po
Assay type: ADME, organism-based
Set-up: dose 2 mg/kg, route oral
Settings: in vivo
Please respond with the number in h and leave the unit unwritten.

COc1cc2nccc(Oc3ccc4c(c3)OCCN4C(=O)Nc3ccc(C)cc3)c2cc1C(N)=O    2.3
COc1cc2nccc(Oc3ccc4c(c3)OCCN4C(=O)Nc3ccc(C)cc3)c2cc1OC    1
COc1cc2nccc(Oc3ccc4c(c3)OCCN4C(=O)Nc3ccc(Cl)cc3)c2cc1C(N)=O    2.3
COc1cc2nccc(Oc3ccc4c(c3)OCCN4C(=O)Nc3ccc(Cl)cc3)c2cc1OC    3.3

With those in mind, consider the next compound.
The compound COc1cc2nccc(Oc3ccc4c(c3)OCCN4C(=O)Nc3ccc(F)cc3)c2cc1OC showed Tmax equal to 2.7

###

Test: Cmax in VEGF-soaked disk implanted Sprague-Dawley rat at […]
Assay type: ADME, organism-based
Set-up: dose 0.16 mg/kg
Settings: in vivo, read-out: ED50
OBSERVED_PROPERTY: Cmax (nM)
All answers are understood in nM, so give the number only.

Briefly, Cmax measured for COc1cc2nccc(Oc3ccc4c(c3)OCCN4C(=O)Nc3ccc(Cl)cc3)c2cc1OC : 180

###

Assay: Volume of distribution at steady state in Sprague-Dawley rat at 0.5 mg/kg, iv
Assay type: ADME, organism-based
Design: dose 0.5 mg/kg, route intravenous
Conditions: in vivo, read-out: Vdss
Listing of entries alongside the reported Vd.
Give the value in L/kg but do not write L/kg after it.

COc1cc2nccc(Oc3ccc4c(c3)OCCN4C(=O)N[C@@H](C)c3ccccc3)c2cc1OC    1.4
COc1cc2nccc(Oc3ccc4c(c3)OCCN4C(=O)Nc3ccc(C)cc3)c2cc1OC    2.8
COc1cc2nccc(Oc3ccc4c(c3)OCCN4C(=O)Nc3ccc(Cl)cc3)c2cc1C(N)=O    0.5
COc1cc2nccc(Oc3ccc4c(c3)OCCN4C(=O)Nc3ccc(Cl)cc3)c2cc1OC    1.8

compound COc1cc2nccc(Oc3ccc4c(c3)OCCN4C(=O)Nc3ccccc3)c2cc1OC , Vd observed: 2.1

Measured Vd, COc1cc2nccc(Oc3ccc4c(c3)OCCN4C(=O)Nc3ccc(F)cc3)c2cc1OC : 2.1

The recorded Vd for COc1cc2nccc(Oc3ccc4c(c3)OCCN4C(=O)Nc3ccc(C)cc3)c2cc1C(N)=O is 1.4
